target: UniProt:P41143; experiment: Opioid receptor binding, [3H]Cl-DPDPE, CHO cell membranes; conditions: Hot Ligand [3H]DPDPE-CL; Jul. 2, 1999 and confirmation Jul. 5, 1999; read-out: IC50, Delta Binding
Sequence (P41143 whole entry): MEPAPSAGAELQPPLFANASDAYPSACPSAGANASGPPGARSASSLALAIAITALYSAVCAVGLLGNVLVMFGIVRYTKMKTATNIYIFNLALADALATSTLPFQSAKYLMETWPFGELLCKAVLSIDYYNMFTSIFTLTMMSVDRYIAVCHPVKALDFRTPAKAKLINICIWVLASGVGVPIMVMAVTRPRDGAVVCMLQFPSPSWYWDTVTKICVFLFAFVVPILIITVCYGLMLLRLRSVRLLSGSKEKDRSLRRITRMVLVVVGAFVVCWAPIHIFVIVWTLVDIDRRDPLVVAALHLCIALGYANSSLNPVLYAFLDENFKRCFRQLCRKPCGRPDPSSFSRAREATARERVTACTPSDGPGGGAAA
endpoint-name: IC50

Q: Tell me reported IC50 for `[Cl-].[Cl-].[Mn+2].c1cc2nc(c1)CN[C@@H]1CCCC[C@H]1NCCN[C@@H]1CCCC[C@H]1NC2` , tested with UniProt:P41143.
Result: > 10 µM

---

molecular target: human opioid μ receptor (Homo sapiens, UniProt P35372); construct: expressed in transfected cells; host or cells: CHO cells, membranes; assay: Opioid receptor binding, [3H]DAMGO, CHO cell membranes; settings: human receptor in CHO cell membranes; Cheng Prusoff
Sequence (P35372 whole entry): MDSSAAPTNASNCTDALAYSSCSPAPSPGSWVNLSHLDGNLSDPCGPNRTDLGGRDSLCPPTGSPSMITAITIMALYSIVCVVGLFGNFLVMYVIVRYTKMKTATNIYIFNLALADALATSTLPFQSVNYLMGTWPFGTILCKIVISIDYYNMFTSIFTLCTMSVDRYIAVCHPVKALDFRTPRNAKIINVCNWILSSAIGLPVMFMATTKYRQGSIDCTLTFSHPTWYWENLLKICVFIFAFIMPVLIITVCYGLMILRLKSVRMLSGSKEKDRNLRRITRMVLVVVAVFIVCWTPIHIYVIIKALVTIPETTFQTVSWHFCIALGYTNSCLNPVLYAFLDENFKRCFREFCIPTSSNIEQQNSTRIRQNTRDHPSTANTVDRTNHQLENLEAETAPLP
endpoint-name: Ki

Q: I would be grateful if you could share the reported Ki for `[Cl-].[Cl-].[Mn+2].c1cc2nc(c1)CN[C@@H]1CCCC[C@H]1NCCN[C@@H]1CCCC[C@H]1NC2` .
Result: > 10000 nM

---

biological target: human opioid k receptor (Homo sapiens, UniProt P41145); construct: expressed in transfected cells; host or cells: CHO cells, membranes; assay: Opioid receptor binding, [3H]U69,593, CHO cell membranes; details: human receptor in CHO cell membranes; Cheng Prusoff
Sequence (P41145 whole entry): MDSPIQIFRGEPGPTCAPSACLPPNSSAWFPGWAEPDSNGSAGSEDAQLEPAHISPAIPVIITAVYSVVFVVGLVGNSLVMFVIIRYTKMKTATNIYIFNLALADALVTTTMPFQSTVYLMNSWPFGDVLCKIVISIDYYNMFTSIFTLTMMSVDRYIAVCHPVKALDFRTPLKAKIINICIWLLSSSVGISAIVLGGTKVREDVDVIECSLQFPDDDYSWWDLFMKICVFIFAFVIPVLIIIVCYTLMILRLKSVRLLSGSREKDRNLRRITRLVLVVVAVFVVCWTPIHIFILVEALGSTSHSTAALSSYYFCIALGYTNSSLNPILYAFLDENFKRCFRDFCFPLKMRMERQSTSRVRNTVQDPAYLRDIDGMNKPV
endpoint-name: Ki

Q: Looking for the measured Ki of [Cl-].[Cl-].[Mn+2].c1cc2nc(c1)CN[C@@H]1CCCC[C@H]1NCCN[C@@H]1CCCC[C@H]1NC2 [M40403] , can you help?
Result: ~240 nM

Provenance of the data: patent US20040236519A1
